target.under.test: CES2 (cocaine esterase) (Homo sapiens)
assay.explanation: Inhibition of human intestinal CES2 expressed in baculovirus infected sf9 cells at 10 uM using o-nitrophenyl acetate as substrate monitored at 15 secs interval for 5 mins relative to control
experimental.context: probe o-nitrophenyl acetate
reported.property: inhibition at 5 min, 10 µM (%)
Respond numerically; units are % and should not be typed.

As a guide, the following entries are already answered.
COc1ccc(NC2=CC(=O)C(=O)c3ccccc32)cc1; 12
Cc1ccc(NC2=CC(=O)C(=O)c3ccccc32)cc1; 15
O=C1C=C(Nc2ccccc2)c2ccccc2C1=O; 12
CN(C1=CC(=O)C(=O)c2ccccc21)c1ccccc1; 33
COc1ccc(N(C)C2=CC(=O)C(=O)c3ccccc32)cc1; 7

# evaluate next
For record CN(C1=CC(=O)C(=O)c2ccccc21)c1ccc(I)cc1 the listed inhibition at 5 min, 10 µM is 83

---

Ki values by entry
target.under.test: Liver carboxylesterase 1 (Homo sapiens)
Sequence (P23141 whole entry): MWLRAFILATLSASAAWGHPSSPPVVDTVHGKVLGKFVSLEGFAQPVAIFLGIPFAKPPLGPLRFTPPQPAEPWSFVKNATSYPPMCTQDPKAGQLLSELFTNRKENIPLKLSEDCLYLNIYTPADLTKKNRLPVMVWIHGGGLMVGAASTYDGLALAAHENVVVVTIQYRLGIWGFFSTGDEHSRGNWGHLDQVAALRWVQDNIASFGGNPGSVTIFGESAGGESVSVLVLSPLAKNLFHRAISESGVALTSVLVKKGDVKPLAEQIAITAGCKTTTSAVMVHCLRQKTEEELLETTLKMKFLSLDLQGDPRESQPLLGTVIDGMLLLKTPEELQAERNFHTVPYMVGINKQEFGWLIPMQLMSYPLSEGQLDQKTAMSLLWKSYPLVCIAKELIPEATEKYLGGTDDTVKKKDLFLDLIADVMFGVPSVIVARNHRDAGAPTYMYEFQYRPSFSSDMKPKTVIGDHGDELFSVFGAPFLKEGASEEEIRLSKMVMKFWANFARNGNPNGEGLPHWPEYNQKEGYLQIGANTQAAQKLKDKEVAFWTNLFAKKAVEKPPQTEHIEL
assay.explanation: Inhibition of human liver CES1 expressed in baculovirus infected sf9 cells using o-nitrophenyl acetate as substrate monitored at 15 secs interval for 5 mins
Number first, unit second.

Here are 2 molecules together with their reported answers.
Cc1ccc(OC2=CC(=O)C(=O)c3ccccc32)cc1; 4.44 nM
O=C1C=C(Oc2ccccc2)c2ccccc2C1=O; 23.8 nM

Let us examine a further case.
Lab note: molecule O=C1C=C(Oc2ccc(I)cc2)c2ccccc2C1=O tested on Liver carboxylesterase 1 (Homo sapiens); recorded Ki was 4.7 nM

---

target.under.test: Acetylcholinesterase (Homo sapiens) (UniProt P22303)
assay.explanation: Inhibition of human AChE at 10 uM using acetylthiocholine as substrate by spectrophotometric method relative to control
Property: inhibition; scope: individual compounds
Your answer is read as %, so omit the unit and give the number.

Please review the following examples before continuing.
O=C1C=C(Oc2ccccc2)c2ccccc2C1=O; 11
CN(C1=CC(=O)C(=O)c2ccccc21)c1ccc(F)cc1; 1
O=C1C=C(Oc2ccc(Br)cc2)c2ccccc2C1=O; 26
Cc1ccc(N(C)C2=CC(=O)C(=O)c3ccccc32)cc1; 3
O=C1C=C(Nc2ccccc2)c2ccccc2C1=O; 5
COc1ccc(OC2=CC(=O)C(=O)c3ccccc32)cc1; 18
Cc1ccc(NC2=CC(=O)C(=O)c3ccccc32)cc1; 17
O=C1C=C(Oc2ccc(Cl)cc2)c2ccccc2C1=O; 31

The measured inhibition associated with COc1ccc(NC2=CC(=O)C(=O)c3ccccc32)cc1 reads 5

// field: inhibition; key: CC1(C)CCC2=C(O1)c1ccccc1C(=O)C2=O [LAPACHONE] ; value = 10

Lookup result for O=C1C=C(Nc2ccc(Br)cc2)c2ccccc2C1=O ; measured inhibition: 16

// sample O=C1C=C(Nc2ccc(I)cc2)c2ccccc2C1=O , its inhibition was 16

// O=C1C=C(Oc2ccc(F)cc2)c2ccccc2C1=O : inhibition value = 22

---

target.under.test: CES1 (liver carboxylesterase 1) (Homo sapiens, UniProt P23141)
Sequence (P23141 whole entry): as above
assay.explanation: Inhibition of human liver CES1 expressed in U373MG cells assessed as oseltamivir carboxylate formation at 5 uM using oseltamivir as substrate preincubated for 30 mins followed by compound washout and subsequent compound/substrate addition measured after 30 mins by UPLC-MS method relative to control
Format: cell-based
Design: scale not given: the % may be the effect or the level left
experimental.context: U373MG cells expressing human liver CES1, probe oseltamivir, read-out: Activity
reported.property: activity at 0.5 h, 5 µM (%)
Response body: numeric value in %, unit text excluded.

Sample records with activity at 0.5 h, 5 µM:
O=C1C=C(Oc2ccc(Cl)cc2)c2ccccc2C1=O; 20
O=C1C=C(Oc2ccccc2)c2ccccc2C1=O; 19
CN(C1=CC(=O)C(=O)c2ccccc21)c1ccc(F)cc1; 1
CC1(C)CCC2=C(O1)c1ccccc1C(=O)C2=O [LAPACHONE]; 12

activity at 0.5 h, 5 µM in this record for CN(C1=CC(=O)C(=O)c2ccccc21)c1ccc(Cl)cc1 : 5

Item: COc1ccc(N(C)C2=CC(=O)C(=O)c3ccccc32)cc1 | activity at 0.5 h, 5 µM: 6

Lab note: measured activity at 0.5 h, 5 µM of Cc1ccc(N(C)C2=CC(=O)C(=O)c3ccccc32)cc1 was 2

The value of activity at 0.5 h, 5 µM measured for the molecule CN(C1=CC(=O)C(=O)c2ccccc21)c1ccccc1 turned out to be 8

The recorded activity at 0.5 h, 5 µM for COc1ccc(OC2=CC(=O)C(=O)c3ccccc32)cc1 is 14

Reported activity at 0.5 h, 5 µM for O=C1C=C(Oc2ccc(Br)cc2)c2ccccc2C1=O was 47
